Assay: Oral bioavailability in Sprague-Dawley rat at 5 mg/kg administered via gavage by HPLC-MS analysis
Format: ADME, organism-based
Conditions: in vivo
RESULT TYPE: bioavailability (%)
Kindly answer with a numeric value in %, unit omitted.

INPUT: For the compound CCCC[C@](C)(CO)Nc1nc(N)nc2cc(F)cnc12 , what bioavailability is on record?
OUTPUT: 8.8

----------
Test: Drug absorption in cynomolgus monkey at 3 mg/kg, po administered via gavage by HPLC-MS analysis
Type: ADME, organism-based, Macaca fascicularis
Settings: in vivo, read-out: Drug absorption
RESULT TYPE: Fa (%)
Kindly answer with a numeric value in %, unit omitted.

INPUT: For the compound CCCC[C@](C)(CO)Nc1nc(N)nc2cc(F)cnc12 [SELGANTOLIMOD] , what Fa is on record?
OUTPUT: 100
